Target: wild-type and mutant CD3 binding domains harbored within TROP2 TCE constructs
Assay: ELISA binding of peptide masks to wild-type and mutated TROP2 TCEs
Settings: read-out: TCE-4 (3076) (H101A) EC50; captured biotinylated peptide or CD3-biotin; binding of TCE-4, anti-CD3 H101A
pEC50: −log10 of the molar value.

compound	pEC50
CSCC[C@H](NC(=O)[C@@H]1CSSC[C@H](NC(=O)[C@H](Cc2ccc(O)cc2)NC(=O)[C@H](C)N)C(=O)NCC(=O)N2CCC[C@H]2C(=O)N[C@@H](CCC(=O)O)C(=O)N[C@@H](Cc2ccccc2)C(=O)N[C@@H](CC(=O)O)C(=O)N[C@@H](CCC(=O)O)C(=O)N[C@@H](CO)C(=O)N[C@@H](C(C)C)C(=O)NCC(=O)N1)C(=O)O [Peptide-8]	8.87
CC(C)C[C@@H]1NC(=O)[C@H](CC(=O)O)NC(=O)[C@H](C(C)C)NC(=O)[C@H](CC(C)C)NC(=O)[C@@H](NC(=O)[C@H](CCC(=O)O)NC(=O)[C@@H](N)CO)CSSC[C@@H](C(=O)N[C@@H](Cc2ccc(O)cc2)C(=O)N[C@@H](Cc2c[nH]c3ccccc23)C(=O)O)NC(=O)[C@@H]2CCCN2C(=O)[C@H](CC(=O)O)NC(=O)[C@H](CO)NC(=O)[C@H](CCC(N)=O)NC1=O [Peptide-5]	8.16
CC(C)C[C@@H]1NC(=O)[C@@H](NC(=O)[C@H](C)NC(=O)[C@H](CO)NC(=O)CN)CSSC[C@@H](C(=O)N2CCC[C@H]2C(=O)N[C@@H](Cc2ccc(O)cc2)C(=O)O)NC(=O)[C@H](C(C)C)NC(=O)[C@H](CCC(=O)O)NC(=O)[C@H](Cc2c[nH]c3ccccc23)NC(=O)[C@H](CCC(=O)O)NC(=O)[C@@H]2CCCN2C(=O)CNC1=O [Peptide-11]	8.98
CC(C)C[C@@H]1NC(=O)[C@@H](NC(=O)[C@H](CCC(N)=O)NC(=O)[C@H](CO)NC(=O)[C@H](C)N)CSSC[C@@H](C(=O)N2CCC[C@H]2C(=O)N[C@@H](Cc2ccc(O)cc2)C(=O)O)NC(=O)[C@H](C(C)C)NC(=O)[C@H](CCC(=O)O)NC(=O)[C@H](Cc2c[nH]c3ccccc23)NC(=O)[C@H](CCC(=O)O)NC(=O)[C@@H]2CCCN2C(=O)CNC1=O [Peptide-10]	9.08

---

Molecular target: wild-type and mutant CD3 binding domains harbored within TROP2 TCE constructs
Assay: ELISA binding of peptide masks to wild-type and mutated TROP2 TCEs
Details: read-out: TCE-7 (3079) (F104A) EC50; captured biotinylated peptide or CD3-biotin; binding of TCE-7, anti-CD3 F104A
Measured EC50 of individual entries

compound	EC50 / nM
CC(C)C[C@@H]1NC(=O)[C@@H](NC(=O)[C@H](C)NC(=O)[C@H](CO)NC(=O)CN)CSSC[C@@H](C(=O)N2CCC[C@H]2C(=O)N[C@@H](Cc2ccc(O)cc2)C(=O)O)NC(=O)[C@H](C(C)C)NC(=O)[C@H](CCC(=O)O)NC(=O)[C@H](Cc2c[nH]c3ccccc23)NC(=O)[C@H](CCC(=O)O)NC(=O)[C@@H]2CCCN2C(=O)CNC1=O [Peptide-11]	0.88
CC(C)C[C@@H]1NC(=O)[C@@H](NC(=O)[C@H](CCC(N)=O)NC(=O)[C@H](CO)NC(=O)CN)CSSC[C@@H](C(=O)N2CCC[C@H]2C(=O)N[C@@H](Cc2ccc(O)cc2)C(=O)O)NC(=O)[C@H](C(C)C)NC(=O)[C@H](CCC(=O)O)NC(=O)[C@H](Cc2c[nH]c3ccccc23)NC(=O)[C@H](CCC(=O)O)NC(=O)[C@@H]2CCCN2C(=O)CNC1=O [Peptide-2]	0.63
CC(C)C[C@@H]1NC(=O)[C@@H](NC(=O)[C@H](CCC(N)=O)NC(=O)[C@H](CO)NC(=O)[C@H](C)N)CSSC[C@@H](C(=O)N2CCC[C@H]2C(=O)N[C@@H](Cc2ccc(O)cc2)C(=O)O)NC(=O)[C@H](C(C)C)NC(=O)[C@H](CCC(=O)O)NC(=O)[C@H](Cc2c[nH]c3ccccc23)NC(=O)[C@H](CCC(=O)O)NC(=O)[C@@H]2CCCN2C(=O)CNC1=O [Peptide-10]	0.66
CC(C)C[C@@H]1NC(=O)[C@H](CC(=O)O)NC(=O)[C@H](C(C)C)NC(=O)[C@H](CC(C)C)NC(=O)[C@@H](NC(=O)[C@H](CCC(=O)O)NC(=O)[C@@H](N)CO)CSSC[C@@H](C(=O)N[C@@H](Cc2ccc(O)cc2)C(=O)N[C@@H](Cc2c[nH]c3ccccc23)C(=O)O)NC(=O)[C@@H]2CCCN2C(=O)[C@H](CC(=O)O)NC(=O)[C@H](CO)NC(=O)[C@H](CCC(N)=O)NC1=O [Peptide-5]	1.93

---

Biological target: wild-type and mutant CD3 binding domains harbored within TROP2 TCE constructs
Experiment: ELISA binding of peptide masks to wild-type and mutated TROP2 TCEs
Conditions: read-out: TCE-15 (3087) (W112A) EC50; captured biotinylated peptide or CD3-biotin; binding of TCE-15, anti-CD3 W112A
recordedEndpoint: EC50

molecule	recordedEndpoint	result
CC(C)C[C@@H]1NC(=O)[C@@H](NC(=O)[C@H](C)NC(=O)[C@H](CO)NC(=O)CN)CSSC[C@@H](C(=O)N2CCC[C@H]2C(=O)N[C@@H](Cc2ccc(O)cc2)C(=O)O)NC(=O)[C@H](C(C)C)NC(=O)[C@H](CCC(=O)O)NC(=O)[C@H](Cc2c[nH]c3ccccc23)NC(=O)[C@H](CCC(=O)O)NC(=O)[C@@H]2CCCN2C(=O)CNC1=O [Peptide-11]	EC50	38.2 nM
CSCC[C@H](NC(=O)[C@@H]1CSSC[C@H](NC(=O)[C@H](Cc2ccc(O)cc2)NC(=O)[C@H](C)N)C(=O)NCC(=O)N2CCC[C@H]2C(=O)N[C@@H](CCC(=O)O)C(=O)N[C@@H](Cc2ccccc2)C(=O)N[C@@H](CC(=O)O)C(=O)N[C@@H](CCC(=O)O)C(=O)N[C@@H](CO)C(=O)N[C@@H](C(C)C)C(=O)NCC(=O)N1)C(=O)O [Peptide-8]	EC50	11.2 nM
CC(C)C[C@@H]1NC(=O)[C@@H](NC(=O)[C@H](CCC(N)=O)NC(=O)[C@H](CO)NC(=O)[C@H](C)N)CSSC[C@@H](C(=O)N2CCC[C@H]2C(=O)N[C@@H](Cc2ccc(O)cc2)C(=O)O)NC(=O)[C@H](C(C)C)NC(=O)[C@H](CCC(=O)O)NC(=O)[C@H](Cc2c[nH]c3ccccc23)NC(=O)[C@H](CCC(=O)O)NC(=O)[C@@H]2CCCN2C(=O)CNC1=O [Peptide-10]	EC50	23.4 nM

---

Molecular target: wild-type and mutant CD3 binding domains harbored within TROP2 TCE constructs
Experiment: ELISA binding of peptide masks to wild-type and mutated TROP2 TCEs
Conditions: read-out: TCE-19 (3091) (W233A) EC50; captured biotinylated peptide or CD3-biotin; binding of TCE-19, anti-CD3 W233A
pEC50: −log10 of the molar value.
Measured pEC50 of individual entries

compound	targetDesc	pEC50
CSCC[C@H](NC(=O)[C@@H]1CSSC[C@H](NC(=O)[C@H](Cc2ccc(O)cc2)NC(=O)[C@@H](N)C(C)C)C(=O)NCC(=O)N2CCC[C@H]2C(=O)N[C@@H](CCC(=O)O)C(=O)N[C@@H](Cc2ccccc2)C(=O)N[C@@H](CC(=O)O)C(=O)N[C@@H](CCC(=O)O)C(=O)N[C@@H](CO)C(=O)N[C@@H](C(C)C)C(=O)NCC(=O)N1)C(=O)O [Peptide-3]	wild-type and mutant CD3 binding domains harbored within TROP2 TCE constructs	8.19
CC(C)C[C@@H]1NC(=O)[C@@H](NC(=O)[C@H](CCC(N)=O)NC(=O)[C@H](CO)NC(=O)[C@H](C)N)CSSC[C@@H](C(=O)N2CCC[C@H]2C(=O)N[C@@H](Cc2ccc(O)cc2)C(=O)O)NC(=O)[C@H](C(C)C)NC(=O)[C@H](CCC(=O)O)NC(=O)[C@H](Cc2c[nH]c3ccccc23)NC(=O)[C@H](CCC(=O)O)NC(=O)[C@@H]2CCCN2C(=O)CNC1=O [Peptide-10]	wild-type and mutant CD3 binding domains harbored within TROP2 TCE constructs	8.26
CSCC[C@H](NC(=O)[C@@H]1CSSC[C@H](NC(=O)[C@H](Cc2ccc(O)cc2)NC(=O)[C@H](C)N)C(=O)NCC(=O)N2CCC[C@H]2C(=O)N[C@@H](CCC(=O)O)C(=O)N[C@@H](Cc2ccccc2)C(=O)N[C@@H](CC(=O)O)C(=O)N[C@@H](CCC(=O)O)C(=O)N[C@@H](CO)C(=O)N[C@@H](C(C)C)C(=O)NCC(=O)N1)C(=O)O [Peptide-8]	wild-type and mutant CD3 binding domains harbored within TROP2 TCE constructs	8.19
CC(C)C[C@@H]1NC(=O)[C@@H](NC(=O)[C@H](C)NC(=O)[C@H](CO)NC(=O)CN)CSSC[C@@H](C(=O)N2CCC[C@H]2C(=O)N[C@@H](Cc2ccc(O)cc2)C(=O)O)NC(=O)[C@H](C(C)C)NC(=O)[C@H](CCC(=O)O)NC(=O)[C@H](Cc2c[nH]c3ccccc23)NC(=O)[C@H](CCC(=O)O)NC(=O)[C@@H]2CCCN2C(=O)CNC1=O [Peptide-11]	wild-type and mutant CD3 binding domains harbored within TROP2 TCE constructs	8.20
CC(C)C[C@@H]1NC(=O)[C@H](CC(=O)O)NC(=O)[C@H](C(C)C)NC(=O)[C@H](CC(C)C)NC(=O)[C@@H](NC(=O)[C@H](CCC(=O)O)NC(=O)[C@@H](N)CO)CSSC[C@@H](C(=O)N[C@@H](Cc2ccc(O)cc2)C(=O)N[C@@H](Cc2c[nH]c3ccccc23)C(=O)O)NC(=O)[C@@H]2CCCN2C(=O)[C@H](CC(=O)O)NC(=O)[C@H](CO)NC(=O)[C@H](CCC(N)=O)NC1=O [Peptide-5]	wild-type and mutant CD3 binding domains harbored within TROP2 TCE constructs	9.46
CC(C)C[C@@H]1NC(=O)[C@@H](NC(=O)[C@H](CCC(N)=O)NC(=O)[C@H](CO)NC(=O)CN)CSSC[C@@H](C(=O)N2CCC[C@H]2C(=O)N[C@@H](Cc2ccc(O)cc2)C(=O)O)NC(=O)[C@H](C(C)C)NC(=O)[C@H](CCC(=O)O)NC(=O)[C@H](Cc2c[nH]c3ccccc23)NC(=O)[C@H](CCC(=O)O)NC(=O)[C@@H]2CCCN2C(=O)CNC1=O [Peptide-2]	wild-type and mutant CD3 binding domains harbored within TROP2 TCE constructs	8.20

From: patent US20260049140A1
